Cited source: the supplement of paper PMC13380429

System: Vero E6 infected with SARS-CoV-2
Assay: inhibition of SARS-CoV-2 cytopathic effect; higher = more antiviral protection, active = above 15
Conditions: 10000 nM; 48 h
Answer each item with its documented inhibition of SARS-CoV-2 cytopathic effect.
Supply the numeric figure in %, leaving out any unit text.

Query: Please tell me: inhibition of SARS-CoV-2 cytopathic effect of Clc1cccc(-n2nnnc2NCc2ccccc2Oc2ccccn2)c1Cl , system Vero E6 infected with SARS-CoV-2?
Result: 1.67

Query: Please tell me: inhibition of SARS-CoV-2 cytopathic effect of N[C@@H](CS)C(=O)O , system Vero E6 infected with SARS-CoV-2?
Result: -5.76

Query: Please tell me: inhibition of SARS-CoV-2 cytopathic effect of Cc1c(I)c(=O)n(-c2ccccc2)n1C [iodoantipyrine] , system Vero E6 infected with SARS-CoV-2?
Result: 1.55

Query: Please tell me: inhibition of SARS-CoV-2 cytopathic effect of CC[C@H]1CN2CC[C@H]1C[C@@H]2[C@@H](O)c1ccnc2ccc(OC)cc12 [hydroquinidine] , system Vero E6 infected with SARS-CoV-2?
Result: 1.57

Query: Please tell me: inhibition of SARS-CoV-2 cytopathic effect of C/C(=C\C(N)C(=O)O)CP(=O)(O)O (stereo unspecified) , system Vero E6 infected with SARS-CoV-2?
Result: -3.57

Query: Please tell me: inhibition of SARS-CoV-2 cytopathic effect of CC1Sc2c(C(=O)O)c(=O)c3cc(F)c(N4CCNCC4)cc3n21 (stereo unspecified) , system Vero E6 infected with SARS-CoV-2?
Result: -0.79

###

Test system: Vero E6 infected with SARS-CoV-2
Test: inhibition of SARS-CoV-2 cytopathic effect; higher = more antiviral protection, active = above 15
Settings: 833.33 nM; 48 h
QUANTITY: inhibition of SARS-CoV-2 cytopathic effect (%)
Supply the numeric figure in %, leaving out any unit text.

Query: Give its inhibition of SARS-CoV-2 cytopathic effect value. Item: CCN1C[C@]2(COC(=O)c3ccccc3N3C(=O)C[C@H](C)C3=O)CC[C@H](OC)[C@@]34[C@@H]5C[C@H]6[C@H](OC)[C@@H]5[C@](O)(C[C@@H]6OC)[C@](O)([C@@H](OC)[C@H]23)[C@@H]14
Result: 0.06

Query: Give its inhibition of SARS-CoV-2 cytopathic effect value. Item: CC(C)[C@@H](C)/C=C/[C@@H](C)[C@H]1CC[C@H]2/C(=C/C=C3\C[C@@H](O)CC[C@@H]3C)CCC[C@]12C [dihydrotachysterol]
Result: -0.26

Query: Give its inhibition of SARS-CoV-2 cytopathic effect value. Item: CN1C(=O)CC[C@H]1c1cccnc1
Result: 0.39

Query: Give its inhibition of SARS-CoV-2 cytopathic effect value. Item: CCN(CC)C(=S)SSC(=S)N(CC)CC
Result: 26.5

###

Answer each item with its documented inhibition of SARS-CoV-2 cytopathic effect.
Test system: Vero E6 infected with SARS-CoV-2
Assay: inhibition of SARS-CoV-2 cytopathic effect; higher = more antiviral protection, active = above 15
Conditions: 1 nM; 48 h
Supply the numeric figure in %, leaving out any unit text.

Query: Give its inhibition of SARS-CoV-2 cytopathic effect value. Item: OC(c1ccccc1)C1CCN(CCc2ccccc2)CC1 (centres undefined)
Result: -0.21

Query: Give its inhibition of SARS-CoV-2 cytopathic effect value. Item: CCCCC1CCC(c2nc(-c3ccncc3)no2)CC1 (centres undefined)
Result: 1.12

Query: Give its inhibition of SARS-CoV-2 cytopathic effect value. Item: CO[C@H]1/C=C/O[C@@]2(C)Oc3c(C)c(O)c4c(O)c(c(/C=N/N5CCN(C6CCCC6)CC5)c(O)c4c3C2=O)NC(=O)/C(C)=C\C=C\[C@H](C)[C@H](O)[C@@H](C)[C@@H](O)[C@@H](C)[C@H](OC(C)=O)[C@@H]1C [rifapentine]
Result: -8.98

Query: Give its inhibition of SARS-CoV-2 cytopathic effect value. Item: CC(C)(CC(=O)N1CCCC1)NCC(=O)N1C[C@@H](F)C[C@H]1C#N
Result: 1.83
